# target: T1, TNFR1 (Homo sapiens, UniProt P19438)
# T1 chain: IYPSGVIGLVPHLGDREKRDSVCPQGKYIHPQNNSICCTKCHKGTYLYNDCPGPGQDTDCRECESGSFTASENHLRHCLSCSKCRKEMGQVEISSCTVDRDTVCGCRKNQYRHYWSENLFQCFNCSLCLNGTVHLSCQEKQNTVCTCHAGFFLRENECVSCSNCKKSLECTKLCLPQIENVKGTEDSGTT
# procedureSummary: yeast display SC50
measuredEndpoint: apparent Kd (screen)
Returns: string containing the number followed by the unit.

| binder | apparent Kd (screen) |
| --- | --- |
| R89H (designed binder) MTLQELLREEALRRAEAEAFRYALELLAEKFPEQKEYLLDLAEEIESQIRSLSGVDVEDVRKFLDKEWAWVKELLAEHPAELAEVEAAHAARLAELRAEVEAKVAA | 0.539 nM |
| A91G (designed binder) MTLQELLREEALRRAEAEAFRYALELLAEKFPEQKEYLLDLAEEIESQIRSLSGVDVEDVRKFLDKEWAWVKELLAEHPAELAEVEAARAGRLAELRAEVEAKVAA | 0.49 nM |
| Y37S (designed binder) MTLQELLREEALRRAEAEAFRYALELLAEKFPEQKESLLDLAEEIESQIRSLSGVDVEDVRKFLDKEWAWVKELLAEHPAELAEVEAARAARLAELRAEVEAKVAA | 12.5 nM |
| Q4L (designed binder) MTLLELLREEALRRAEAEAFRYALELLAEKFPEQKEYLLDLAEEIESQIRSLSGVDVEDVRKFLDKEWAWVKELLAEHPAELAEVEAARAARLAELRAEVEAKVAA | 0.446 nM |
| E25H (designed binder) MTLQELLREEALRRAEAEAFRYALHLLAEKFPEQKEYLLDLAEEIESQIRSLSGVDVEDVRKFLDKEWAWVKELLAEHPAELAEVEAARAARLAELRAEVEAKVAA | 0.718 nM |

Continue with the next binder.
[in] Which measured apparent Kd (screen) value corresponds to H78M (designed binder) MTLQELLREEALRRAEAEAFRYALELLAEKFPEQKEYLLDLAEEIESQIRSLSGVDVEDVRKFLDKEWAWVKELLAEMPAELAEVEAARAARLAELRAEVEAKVAA ?
[out] 0.49 nM
